- target_or_test_system: catalytic domain (JH1, amino acids 808-1132) of human JAK2 (Homo sapiens, UniProt O60674)
- Sequence (O60674 808-1132 limits assumed): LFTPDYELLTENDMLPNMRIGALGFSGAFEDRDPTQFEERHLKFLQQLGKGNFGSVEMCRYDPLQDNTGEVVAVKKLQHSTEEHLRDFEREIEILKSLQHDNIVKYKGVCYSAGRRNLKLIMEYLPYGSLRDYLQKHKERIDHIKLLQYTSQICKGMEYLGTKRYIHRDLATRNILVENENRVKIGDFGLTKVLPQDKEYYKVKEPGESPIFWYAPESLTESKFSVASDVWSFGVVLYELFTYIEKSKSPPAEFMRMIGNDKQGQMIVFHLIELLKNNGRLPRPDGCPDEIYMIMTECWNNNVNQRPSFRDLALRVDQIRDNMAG
- test_details: JAK2 HTRF Enzyme Activity Assay
- condition_parameters: ATP 30 µM, 60 minutes at 25° C.; read-out: V617F ENZ 30 UM
pIC50: −log10 of the molar value.
quantity_measured: pIC50

smiles_string=COC(=O)N[C@@H]1CC[C@@H](n2c(=O)n(C)c3cnc(Nc4cccc(OC5CCOCC5)n4)cc32)C1 result="< 6.00"
smiles_string=[2H]C([2H])([2H])n1c(=O)n([C@@H]2CC[C@]([2H])(NC(=O)OC)C2)c2cc(Nc3cc(-c4cnccc4C(F)(F)F)c4nc(C)c(-c5cnn(C(F)F)c5)n4n3)ncc21 result="< 6.00"
smiles_string=[2H]C([2H])([2H])n1c(=O)n([C@@H]2CC[C@@H](NC(=O)OC)C2)c2cc(Nc3cc(CNC4CCCC4)cc(-c4ccc5c(c4)OCCO5)n3)ncc21 result="< 6.00"
smiles_string=COC(=O)N[C@@H]1CC[C@@H](n2c(=O)n(C)c3cnc(Nc4cc(NC(=O)OC5CC5)cc(OC)c4)cc32)C1 result="< 6.00"
smiles_string=COC(=O)Nc1cc(Nc2cc3c(cn2)n(C)c(=O)n3[C@H]2C[C@](C)(NC(=O)OC)C2)cc(-c2cnn(C)c2)c1 result="< 6.00"
smiles_string=[2H]C([2H])([2H])n1c(=O)n([C@@H]2CC[C@]([2H])(NC(=O)OC)C2)c2cc(Nc3cc(C4CCOCC4)cc(-c4ncc(C(C)(C)O)s4)n3)ncc21 result="6.00 to 6.30"

Provenance of the data: patent US20240317744A1
